B1: TPR t1 (parent)
chain: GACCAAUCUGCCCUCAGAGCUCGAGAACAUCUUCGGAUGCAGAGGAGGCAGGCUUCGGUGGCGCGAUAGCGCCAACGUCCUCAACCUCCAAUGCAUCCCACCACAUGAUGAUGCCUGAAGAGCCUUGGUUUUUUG

variants of: B1; experiment: polymerase ribozyme fitness, log enrichment relative to wild type (log ratio); higher = more active; in vitro selection for triplet polymerase activity
Quantity: polymerase ribozyme fitness (log ratio)
// return just the number, without any unit appended

Please review the following examples before continuing.
- Sequence input: "GACAAAUCUGCCCUCAGAGCUCGAGAACAUCUUCGGUUGCAGAGGAGGCAGGCUUCGGUGGCGCGAUAGCGUCAACGACCUCAACCUCCAAUGCAUCCCACCACAUGAUGAUGCCUGAAGAGCCUUGGUUUUUUG [C4A A37U C72U U78A]"
  Quantity: "polymerase ribozyme fitness (log ratio)"
  Result number: -1.52
- Sequence input: "GACCAAUCUGCGCUCAGAGCUCGAGAACAUCUUGGGAUGCAGAGGAGGCAGGCUUCGGUGGCGCGAUAGCGCCAACGUCCUCAACCUCCAAUGCAUCCCACCACAUGAUGAUGACUGAAGAGCCUUGGUUUUUUG [C12G C34G C114A]"
  Quantity: "polymerase ribozyme fitness (log ratio)"
  Result number: -6.75

QUERY: Check the records and state polymerase ribozyme fitness (log ratio) for GACCAAUCUGCCCUCAGAGCUCGAGAACAUCUUCGGAUGCAGAUGAGGCAGGCUUCGGUGGCGCGAUAGCGCGAACGUCCUCAACCUCCAAUGCAUCCCACUACAUGAUGAUGCCUGAAGAGCGUUGGUUUUUUG [G44U C73G C102U C124G]
RESULT: -1.03

QUERY: Specify polymerase ribozyme fitness (log ratio) for GACCAAUCUGCACUCAGAGCUCGAGAUCAUCUUCGGAUGCAGAGGAGGCAGGCUUCGGUGGCACGAUAGCGCCAACGUCCUCAACCUCCAAUGCAUCCCACCACAUGAUGAUGCCUGAAGAGCCUUGGUUUUUUG [C12A A27U G63A] and stop.
RESULT: -5.2

QUERY: Please give measured polymerase ribozyme fitness (log ratio) of the following entry: GACAAAUCUGCCCUCAGAGCUCGAGAACAUCUUCGGAUGCAGAGGAGUCAGGCUUCGGUGCCGCGAUAGCGCCAACGUCCUCAACCUCUAAUGCAUCCCACCACAUGAUGAUGCCUGAAGGGCCUUGGUUUUUUG [C4A G48U G61C C89U A121G]
RESULT: -1.77

QUERY: Identify polymerase ribozyme fitness (log ratio) associated with the variant GACCAAUCUGCCCUCAGAGCUCGAGAACAUCUUCGGAUGCAGAGGAGGCAGGCUUCGGUGGCACGAUAGCGCCAACGCCCUCAACCUCCAAUGCAUCCCACCACAUGAUGAUACCUGAAGAGCCUUGGUUUUUUG [G63A U78C G113A]
RESULT: -1.96

QUERY: Fill in polymerase ribozyme fitness (log ratio) for record GACCAAUCUGCCCUCAGAGCUCGAGAACAUCUUCGGAUGCAGAGGAGGCAAGCUUCUGUGGCGCGAUAGCGCCAACGUCCUCGUCCUCCAAUGCAUCCCACCACGUGAUGAUGCCUGAAGAGCCUUGGUGUUUUG [G51A G57U A83G A84U A105G U130G]
RESULT: -6.12

QUERY: Annotate the variant GACCAAUCUGCCCUCAUAGCUCGAGAACAUCUUCGGAUGCAGAGGAGGUAGGCUUCGGUGGCGCGAUAGCGCCAACGUCCUCAACCUCCAAUACAUCCCACCACAUGAUGAUGCCUGAAGAGCCUUGGUUUUUUG [G17U C49U G93A] with its measured polymerase ribozyme fitness (log ratio).
RESULT: -4.22

QUERY: Output polymerase ribozyme fitness (log ratio) of GACCAAUCUGCCCUCAGAGCGCGAGAACAUCUUCGGAUGCAGAGGAGGCAGGCUUCGGAGGCGCGAUAGCGCCAACGUCCUCUACCUCCAAUGCAUCCCACCACAUGAUGAUGCCUGAAGAGUCUUGGUUCUUUG [U21G U59A A83U C123U U131C]
RESULT: -0.796

QUERY: Consider the variant GACCAAUCUGCCCUCAGAGCUCGAGAACAUCUUCGGAUGCAUAGGAGGCAGGCUUCGGUGGCGCGAUAGCGCCAACGUCCUCAACCCCCAAUGCAUCCCACCACAUGAUGAUGCCUGAAGAGACUUGGUUCUUUG [G42U U87C C123A U131C] . State its measured polymerase ribozyme fitness (log ratio).
RESULT: -0.903
